Molecular target: Calpain I from human erythrocytes (Homo sapiens, UniProt P07384)
Construct: Calpain I from human erythrocytes and calpain II from rabbit were assayed using Suc-Leu-Tyr-AMC; from tissue; host or cells: human erythrocytes
Assay: Calpain I inhibition, Suc-Leu-Tyr-AMC (Table PKC1)
Format: biochemical
Settings: 20 mM Hepes, 10 mM CaCl2, 10 mM β-mercaptoethanol, pH 7.2; read-out: Ki CI (Calpain I)
observable: pKi
Numbers only, as −log10 of the molar value.

CCC(NC(=O)[C@@H]1CCCN1C(=O)[C@H](C)NC(=O)[C@H](C)NC(=O)CCC(=O)OC)C(=O)C(=O)OC (mixture of isomers) [MeO-Suc-Ala-Ala-Pro-Abu-COOMe, MeO-Suc-Ala-Ala-Pro-DL-Abu-CO2 Me]; 4.00
CCOC(=O)C(=O)[C@H](CC)NC(=O)[C@H](CC(C)C)NC(=O)OCc1ccccc1 (racemic) [Z-Leu-Abu-COOEt, Z-Leu-DL-Abu-COOEt]; 7.40
CCOC(=O)C(=O)C(CC)NC(=O)[C@H](C)NC(=O)[C@H](C)NC(=O)OCc1ccccc1 (mixture of isomers) [Z-Ala-Ala-DL-Abu-COOEt, Z-Ala-Ala-DL-Abu-CO2 Et]; 4.30

// each compound listed below needs its pKi
1. CCOC(=O)C(=O)C(Cc1ccccc1)NC(=O)C(CC(C)C)NC(=O)OCc1ccccc1 (stereo not drawn) [Z-Leu-Phe-COOEt]
2. CCCCC(NC(=O)C(CC(C)C)NC(=O)OCc1ccccc1)C(=O)C(=O)OCC (stereo not drawn) [Z-Leu-Nle-COOEt, Z-Leu-NLeu-CO2 Et]
3. CCOC(=O)C(=O)C(C)NC(=O)C(C)NC(=O)C(C)NC(=O)OCc1ccccc1 (racemic) [Z-Ala-Ala-DL-Ala-COOEt, Z-Ala-Ala-DL-Ala-CO2 Et]

Output line:
1. 6.64
2. 6.92
3. 3.70

====

Target: calpain II from rabbit
Assay: Calpain II inhibition, Suc-Leu-Tyr-AMC (Table PKC1)
Settings: 20 mM Hepes, 10 mM CaCl2, 10 mM β-mercaptoethanol, pH 7.2; read-out: Ki CII (Calpain II)
Description: Our discovery of Peptide Keto-Compounds effective as Calpain Inhibitors was made through assay of the Peptide Keto-Compounds as reversible inhibitors. […] All peptide thioester hydrolysis rates were measured with assay mixtures containing 4,4'-dithiodipyridine [e324=19800 M-1 cm-1; Grasetti & Murray, Arch. […] Enzymatic hydrolysis rates were measured at various substrate and inhibitor concentrations, and Ki values were determined by Dixon plot.
Please respond with reported Ki for every item in the list.
Give bare numbers, in nM.

Solved cases below.
CCCCC(NC(=O)C(CC(C)C)NC(=O)OCc1ccccc1)C(=O)C(=O)OCC (stereo not drawn) [Z-Leu-Nle-COOEt, Z-Leu-NLeu-CO2 Et]; 180
CCOC(=O)C(=O)[C@H](CC)NC(=O)[C@H](CC(C)C)NC(=O)OCc1ccccc1 (racemic) [Z-Leu-Abu-COOEt, Z-Leu-DL-Abu-COOEt]; 400
CCOC(=O)C(=O)C(Cc1ccccc1)NC(=O)C(CC(C)C)NC(=O)OCc1ccccc1 (stereo not drawn) [Z-Leu-Phe-COOEt]; 400
CCOC(=O)C(=O)C(CC)NC(=O)[C@H](C)NC(=O)[C@H](C)NC(=O)OCc1ccccc1 (mixture of isomers) [Z-Ala-Ala-DL-Abu-COOEt, Z-Ala-Ala-DL-Abu-CO2 Et]; 200000

Alright, here's another compound for you.
Input line: Would you kindly share the measured Ki for CCCC(NC(=O)[C@H](CC(C)C)NC(=O)OCc1ccccc1)C(=O)C(=O)OCC (mixture of isomers) [Z-Leu-Nva-COOEt, Z-Leu-DL-Nva-COOEt] ?
Output line: 1200

====

Target: Calpain I (Homo sapiens)
Sequence (P07384 1-714): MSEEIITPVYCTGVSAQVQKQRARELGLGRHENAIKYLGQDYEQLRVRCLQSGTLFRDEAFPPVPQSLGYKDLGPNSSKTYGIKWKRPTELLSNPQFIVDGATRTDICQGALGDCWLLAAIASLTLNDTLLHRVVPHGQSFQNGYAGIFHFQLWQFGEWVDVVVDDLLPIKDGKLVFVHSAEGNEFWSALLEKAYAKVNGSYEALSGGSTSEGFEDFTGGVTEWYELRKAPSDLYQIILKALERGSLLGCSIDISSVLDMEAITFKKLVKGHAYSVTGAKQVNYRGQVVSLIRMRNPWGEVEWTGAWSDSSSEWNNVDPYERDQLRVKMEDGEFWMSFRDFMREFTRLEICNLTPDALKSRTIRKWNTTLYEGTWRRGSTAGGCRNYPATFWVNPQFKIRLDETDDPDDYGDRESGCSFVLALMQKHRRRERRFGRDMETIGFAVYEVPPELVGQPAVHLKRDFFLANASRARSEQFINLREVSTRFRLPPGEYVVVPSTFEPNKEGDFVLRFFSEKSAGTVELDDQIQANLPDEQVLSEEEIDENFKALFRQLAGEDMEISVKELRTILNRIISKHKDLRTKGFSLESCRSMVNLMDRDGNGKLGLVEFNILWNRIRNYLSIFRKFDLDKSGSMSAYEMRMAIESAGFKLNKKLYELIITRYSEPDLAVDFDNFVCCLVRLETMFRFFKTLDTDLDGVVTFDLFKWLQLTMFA
Sequence (P04632 1-268 partner): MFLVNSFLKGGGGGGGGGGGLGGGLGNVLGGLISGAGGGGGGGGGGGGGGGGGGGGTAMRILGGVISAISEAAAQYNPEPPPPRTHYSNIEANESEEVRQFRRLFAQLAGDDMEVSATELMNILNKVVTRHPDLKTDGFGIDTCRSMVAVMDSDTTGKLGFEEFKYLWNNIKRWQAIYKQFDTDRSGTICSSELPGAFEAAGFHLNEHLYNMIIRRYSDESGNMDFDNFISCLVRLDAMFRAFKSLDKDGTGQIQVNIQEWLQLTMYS
API: label(entry) gives Condition met if the entry's Ki is strictly smaller than 7 µM; on equality or larger values it gives Condition not met.

Here's what some known entries look like.
CCOC(=O)C(=O)[C@H](Cc1ccccc1)NC(=O)[C@H](CC(C)C)NC(=O)[C@H](CC(C)C)NC(=O)OCc1ccccc1; Condition met
CCCCOC(=O)C(=O)[C@H](Cc1ccccc1)NC(=O)[C@H](CC(C)C)NC(=O)OCc1ccccc1; Condition met
CCCC(NC(=O)[C@H](CC(C)C)NC(=O)OCc1ccccc1)C(=O)C(=O)OCC (mixture of isomers); Condition met
CCOC(=O)C(=O)C(Cc1ccc(Cl)cc1)NC(=O)C(CC(C)C)NC(=O)OCc1ccccc1 (stereo not shown); Condition met
CCCCNC(=O)C(=O)C(CC)NC(=O)C(CC(C)C)NC(=O)OCc1ccccc1 (stereo not shown); Condition met

Input line: Field: below-cutoff. Rule: recorded Ki strictly less than 7 µM. Subject: CCOC(=O)C(=O)[C@H](CC)NC(=O)[C@H](CC(C)C)NC(=O)[C@H](CC(C)C)NS(=O)(=O)c1ccc(C)cc1
Output line: Condition not met

Input line: Field: below-cutoff. Rule: recorded Ki strictly less than 7 µM. Subject: CC[C@H](NC(=O)[C@H](CC(C)C)NC(=O)OCc1ccccc1)C(=O)C(=O)OCc1ccccc1
Output line: Condition not met

Input line: Field: below-cutoff. Rule: recorded Ki strictly less than 7 µM. Subject: CC(C)CC(NC(=O)OCc1ccccc1)C(=O)NC(Cc1ccccc1)C(=O)C(=O)O (stereo not shown)
Output line: Condition met

Input line: Field: below-cutoff. Rule: recorded Ki strictly less than 7 µM. Subject: CC(C)C[C@H](NC(=O)OCc1ccccc1)C(=O)N[C@@H](Cc1ccccc1)C(=O)C(=O)OCc1ccccc1
Output line: Condition met

====

Target: Papain (Carica papaya)
Sequence (P00784 134-345): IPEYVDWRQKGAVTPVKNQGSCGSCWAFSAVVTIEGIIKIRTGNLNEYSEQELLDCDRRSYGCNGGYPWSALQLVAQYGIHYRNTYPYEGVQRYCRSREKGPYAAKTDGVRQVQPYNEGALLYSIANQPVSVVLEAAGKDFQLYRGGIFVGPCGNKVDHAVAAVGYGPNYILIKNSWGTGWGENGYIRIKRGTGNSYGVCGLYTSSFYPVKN
Assay: Papain inhibition, Ki by Dixon plot (Table PKC1)
Assay type: biochemical
Details: 0.05M Tris-HCl pH 7.5, 2 mM EDTA, 5 mM cysteine, 1% DMSO, 25° C., substrate Nα-Benzoyl-Arg-AMC; read-out: Ki P (Papain)
Please respond with reported Ki for every item in the list.
Give bare numbers, in µM.

Solved cases below.
CCOC(=O)C(=O)C(C)NC(=O)[C@@H]1CCCN1C(=O)[C@H](C)NC(=O)OCc1ccccc1 (mixture of isomers) [Z-Ala-Pro-DL-Ala-COOEt, Z-Ala-Pro-DL-Ala-CO2 Et]; 26
COC(=O)CCC(=O)NC(C(=O)N1CCCC1C(=O)NC(Cc1ccccc1)C(=O)C(=O)OC)C(C)C (racemic) [MeO-Suc-Val-Pro-DL-Phe-COOMe, MeO-Suc-Val-Pro-DL-Phe-CO2 Me]; 1.1
CCC(NC(=O)[C@H](C)NC(=O)[C@H](C)NC(=O)OCc1ccccc1)C(=O)C(=O)OCc1ccccc1 (mixture of isomers) [Z-Ala-Ala-DL-Abu-COOBzl, Z-Ala-Ala-DL-Abu-CO2 Bzl]; 30

// each molecule listed below needs its Ki
1. CCCC(NC(=O)C(C)NC(=O)C(C)NC(=O)OCc1ccccc1)C(=O)C(=O)OCC (racemic) [Z-Ala-Ala-DL-Nva-COOEt, Z-Ala-Ala-DL-Nva-CO2 Et]
2. CCOC(=O)C(=O)C(C)NC(=O)C(Cc1ccccc1)NC(=O)OCc1ccccc1 (racemic) [Z-Phe-DL-Ala-COOEt]
3. CCOC(=O)C(=O)C(Cc1ccccc1)NC(=O)C(Cc1ccccc1)NC(=O)OCc1ccccc1 (racemic) [Z-Phe-DL-Phe-COOEt]

Output line:
1. 30
2. 3.6
3. 1.8
